Experiment: Selectivity index, ratio of IC50 for human MRC5 cells to IC50 for multidrug resistant human COLO320 cells
Type: functional
experimental_endpoint: Ratio IC50

Example entries begin here.
O=C(C[Se]C(=O)c1ccccc1)Oc1ccccc1    >=1.9
CC(C)(C)C(=O)C[Se]C(=O)c1ccc(Cl)cc1    8.4
COc1cc(OC)cc(C(=O)[Se]CC(=O)C(C)(C)C)c1    14.4
O=C1[Se]C(=O)c2ccccc21    >=1.6
CC(=O)C[Se]C(=O)c1ccc(Cl)cc1    9.7

As a next step, examine the compound that follows.
Ask: Given the compound C[Se]C(=O)c1cccc(C(=O)[Se]C)c1 , what is its reported Ratio IC50?
Result: 2.3
